Test system: Escherichia coli
Test: microbe, parasite or virus in culture
Type: functional, organism-based
Details: ATCC 29425, 3 h
Description: Antimicrobial activity against Escherichia coli ATCC 29425 after 3 hrs by microbroth dilution method
pIC50: −log10 of the molar value.
measured parameter: pIC50

molecule=CC(C)=CCC/C(C)=C/CNCCO[C@@H]1C[C@@H]2CC[C@@]1(C)C2(C)C reported=4.44
molecule=CC(C)=CCC/C(C)=C/CNCCOc1cccc2ccccc12 reported=4.34
molecule="CC(C)=CCC/C(C)=C/CNCCCOC1C2CC3CC(C2)CC1C3 (stereo not drawn)" reported=5.17
molecule="CC(C)=CCC/C(C)=C/COCCNC1C2CC3CC(C2)CC1C3 (stereo not drawn)" reported=4.89
molecule="CC(C)=CCC/C(C)=C/C[N+](C)(C)CCOC1C2CC3CC(C2)CC1C3 (stereo not drawn)" reported=4.12
molecule="CC(C)=CCC/C(C)=C/CNCCOC1C2CC3CC(C2)CC1C3 (stereo not drawn)" reported=5.07
molecule="CC(C)=CCC/C(C)=C/CNCCNC1C2CC3CC(C2)CC1C3 (stereo not drawn)" reported=5.07
molecule=CC(C)=CCC/C(C)=C/CNCCOc1ccccc1 reported=3.66

Source: ChEMBL document CHEMBL3259693
